# test target: TLR1/TLR2 (Homo sapiens, UniProt O60603+Q15399)
# Sequence (Q15399 25-786): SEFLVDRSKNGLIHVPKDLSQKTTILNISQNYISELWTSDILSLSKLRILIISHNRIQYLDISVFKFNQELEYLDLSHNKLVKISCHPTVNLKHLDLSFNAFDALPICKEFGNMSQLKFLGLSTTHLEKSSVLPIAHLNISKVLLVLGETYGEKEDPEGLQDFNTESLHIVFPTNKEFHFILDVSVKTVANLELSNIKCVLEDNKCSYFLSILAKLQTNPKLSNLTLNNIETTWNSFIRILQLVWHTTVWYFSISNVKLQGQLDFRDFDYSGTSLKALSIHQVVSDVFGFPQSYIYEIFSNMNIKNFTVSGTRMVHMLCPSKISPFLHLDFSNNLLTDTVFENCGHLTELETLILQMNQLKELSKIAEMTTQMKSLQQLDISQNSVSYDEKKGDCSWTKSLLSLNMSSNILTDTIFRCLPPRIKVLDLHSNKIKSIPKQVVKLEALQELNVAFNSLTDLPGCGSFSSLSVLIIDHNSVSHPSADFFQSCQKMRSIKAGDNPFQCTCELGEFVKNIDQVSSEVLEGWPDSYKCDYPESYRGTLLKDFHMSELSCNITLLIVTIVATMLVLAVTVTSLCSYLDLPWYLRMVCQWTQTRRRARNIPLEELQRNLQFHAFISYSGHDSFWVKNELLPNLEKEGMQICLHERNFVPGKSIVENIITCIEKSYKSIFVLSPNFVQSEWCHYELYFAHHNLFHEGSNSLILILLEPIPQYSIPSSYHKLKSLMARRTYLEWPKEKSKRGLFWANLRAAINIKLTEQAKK
# Sequence (O60603 21-784): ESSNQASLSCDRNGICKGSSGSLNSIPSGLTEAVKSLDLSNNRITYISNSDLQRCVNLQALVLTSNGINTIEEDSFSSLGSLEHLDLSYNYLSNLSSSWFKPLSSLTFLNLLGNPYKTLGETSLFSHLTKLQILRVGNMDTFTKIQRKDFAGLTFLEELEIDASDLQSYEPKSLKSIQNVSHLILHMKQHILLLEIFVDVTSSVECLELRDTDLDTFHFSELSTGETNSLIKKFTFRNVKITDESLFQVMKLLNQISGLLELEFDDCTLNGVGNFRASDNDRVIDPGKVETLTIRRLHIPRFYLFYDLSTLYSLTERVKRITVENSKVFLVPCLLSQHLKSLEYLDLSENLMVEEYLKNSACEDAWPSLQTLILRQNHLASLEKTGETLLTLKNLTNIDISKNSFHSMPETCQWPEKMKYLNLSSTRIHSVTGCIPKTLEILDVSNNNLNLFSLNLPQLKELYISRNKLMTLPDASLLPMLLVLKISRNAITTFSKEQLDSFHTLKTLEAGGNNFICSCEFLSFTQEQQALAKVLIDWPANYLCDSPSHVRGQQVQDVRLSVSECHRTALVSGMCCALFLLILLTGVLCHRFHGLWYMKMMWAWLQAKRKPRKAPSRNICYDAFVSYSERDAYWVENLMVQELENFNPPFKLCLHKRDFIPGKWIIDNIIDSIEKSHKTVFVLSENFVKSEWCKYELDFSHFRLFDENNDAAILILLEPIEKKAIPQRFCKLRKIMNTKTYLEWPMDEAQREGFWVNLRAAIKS
# method notes: TNF-α release from PMA-differentiated human THP-1 cells (ELISA)
# setup conditions: THP-1, 4 h, read-out: Efficacy (magnitude) of response versus diprovocim-1 (100%), THP-1
result type: Emax (%)
Number in %, nothing else.

Example compounds with recorded Emax:
Look up Emax of N#CCC(=O)OCCCCCCCCCCCCNC(=O)[C@@H]1CN(C(=O)c2ccc(C(=O)N3C[C@@H](C(=O)N[C@H]4C[C@@H]4c4ccccc4)[C@H](C(=O)N[C@H]4C[C@@H]4c4ccccc4)C3)cc2)C[C@H]1C(=O)N[C@H]1C[C@@H]1c1ccccc1 and report it. 100

Look up Emax of CC(C)(C)OC(=O)NCC(=O)NCCCCCCCCCCCCNC(=O)[C@@H]1CN(C(=O)c2ccc(C(=O)N3C[C@@H](C(=O)N[C@H]4C[C@@H]4c4ccccc4)[C@H](C(=O)N[C@H]4C[C@@H]4c4ccccc4)C3)cc2)C[C@H]1C(=O)N[C@H]1C[C@@H]1c1ccccc1 and report it. 90

Look up Emax of CC(C)(C)OC(=O)N1CCC[C@H]1C(=O)OCCCCCCCCCCCCNC(=O)[C@@H]1CN(C(=O)c2ccc(C(=O)N3C[C@@H](C(=O)N[C@H]4C[C@@H]4c4ccccc4)[C@H](C(=O)N[C@H]4C[C@@H]4c4ccccc4)C3)cc2)C[C@H]1C(=O)N[C@H]1C[C@@H]1c1ccccc1 and report it. 90

Continuing:
Look up Emax of CC(=O)NCC(=O)OCCCCCCCCCCCCNC(=O)[C@@H]1CN(C(=O)c2ccc(C(=O)N3C[C@@H](C(=O)N[C@H]4C[C@@H]4c4ccccc4)[C@H](C(=O)N[C@H]4C[C@@H]4c4ccccc4)C3)cc2)C[C@H]1C(=O)N[C@H]1C[C@@H]1c1ccccc1 and report it. 90

====

# test target: TLR1/TLR2 (Mus musculus, UniProt Q9EPQ1+Q9QUN7)
# Sequence (Q9EPQ1 26-795): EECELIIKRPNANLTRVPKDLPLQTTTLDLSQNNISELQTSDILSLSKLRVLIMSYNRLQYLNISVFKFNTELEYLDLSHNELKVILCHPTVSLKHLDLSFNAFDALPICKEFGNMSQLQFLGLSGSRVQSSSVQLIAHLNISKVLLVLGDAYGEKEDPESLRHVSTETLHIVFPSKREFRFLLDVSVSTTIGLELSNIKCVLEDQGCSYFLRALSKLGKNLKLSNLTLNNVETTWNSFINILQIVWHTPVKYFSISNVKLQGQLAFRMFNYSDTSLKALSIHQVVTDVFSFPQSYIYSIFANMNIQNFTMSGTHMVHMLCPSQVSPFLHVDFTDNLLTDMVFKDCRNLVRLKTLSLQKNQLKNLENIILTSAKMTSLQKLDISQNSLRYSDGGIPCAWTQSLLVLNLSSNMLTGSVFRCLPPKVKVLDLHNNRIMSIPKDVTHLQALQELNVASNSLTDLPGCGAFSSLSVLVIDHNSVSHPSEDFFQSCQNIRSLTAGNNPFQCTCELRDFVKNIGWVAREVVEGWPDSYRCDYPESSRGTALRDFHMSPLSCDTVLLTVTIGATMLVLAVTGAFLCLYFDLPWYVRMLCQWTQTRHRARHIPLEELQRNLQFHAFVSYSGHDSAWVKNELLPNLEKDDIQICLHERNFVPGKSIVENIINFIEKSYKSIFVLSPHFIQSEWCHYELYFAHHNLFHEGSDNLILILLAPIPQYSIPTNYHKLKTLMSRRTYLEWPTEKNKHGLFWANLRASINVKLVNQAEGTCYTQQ
# Sequence (Q9QUN7 25-784): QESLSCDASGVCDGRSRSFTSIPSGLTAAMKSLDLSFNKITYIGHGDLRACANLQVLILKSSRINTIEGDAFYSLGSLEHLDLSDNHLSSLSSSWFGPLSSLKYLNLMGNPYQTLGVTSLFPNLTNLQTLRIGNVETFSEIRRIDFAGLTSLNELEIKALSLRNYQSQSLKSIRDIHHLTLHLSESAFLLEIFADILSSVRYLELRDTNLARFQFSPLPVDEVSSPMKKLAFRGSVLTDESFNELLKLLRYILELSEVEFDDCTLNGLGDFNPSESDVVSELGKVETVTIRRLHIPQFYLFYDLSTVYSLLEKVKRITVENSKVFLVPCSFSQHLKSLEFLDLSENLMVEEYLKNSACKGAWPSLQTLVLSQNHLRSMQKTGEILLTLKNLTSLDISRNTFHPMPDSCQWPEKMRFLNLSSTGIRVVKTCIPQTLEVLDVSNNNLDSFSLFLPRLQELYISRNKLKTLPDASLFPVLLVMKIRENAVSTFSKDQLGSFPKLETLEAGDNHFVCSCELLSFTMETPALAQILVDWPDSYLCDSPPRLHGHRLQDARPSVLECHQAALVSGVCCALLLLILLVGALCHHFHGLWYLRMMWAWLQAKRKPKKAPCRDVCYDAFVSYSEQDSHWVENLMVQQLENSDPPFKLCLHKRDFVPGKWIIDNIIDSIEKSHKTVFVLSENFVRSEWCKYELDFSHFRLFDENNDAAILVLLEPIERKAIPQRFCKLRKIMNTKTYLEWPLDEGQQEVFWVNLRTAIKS
# method notes: TNF-α release from thioglycolate-elicited mouse peritoneal macrophages (ELISA)
# setup conditions: read-out: EC50 (nM) (mouse): EC50 TNF-α release from mouse macrophages; Table 6
Catalogue of compounds with associated EC50
Number in nM, nothing else.

Look up EC50 of O=C(OCCCCCCCCCCCCNC(=O)[C@@H]1CN(C(=O)c2ccc(C(=O)N3C[C@@H](C(=O)N[C@H]4C[C@@H]4c4ccccc4)[C@H](C(=O)N[C@H]4C[C@@H]4c4ccccc4)C3)cc2)C[C@H]1C(=O)N[C@H]1C[C@@H]1c1ccccc1)c1ccc(O)cc1 and report it. 50

Continuing:
Look up EC50 of CC(C)(C)OC(=O)C(=O)NCC(=O)OCCCCCCCCCCCCNC(=O)[C@@H]1CN(C(=O)c2ccc(C(=O)N3C[C@@H](C(=O)N[C@H]4C[C@@H]4c4ccccc4)[C@H](C(=O)N[C@H]4C[C@@H]4c4ccccc4)C3)cc2)C[C@H]1C(=O)N[C@H]1C[C@@H]1c1ccccc1 and report it. 16

====

Catalogue of compounds with associated EC50
# test target: TLR1/TLR2 (Mus musculus, UniProt Q9EPQ1+Q9QUN7)
# method notes: TNF-α release from thioglycolate-elicited mouse peritoneal macrophages (ELISA)
# setup conditions: read-out: EC50 (nM) (mouse): EC50 TNF-α release from mouse macrophages; Table 1
Number in nM, nothing else.

Look up EC50 of O=C(NCCCCCCCCCCCCS)[C@@H]1CN(C(=O)c2ccc(C(=O)N3C[C@@H](C(=O)N[C@H]4C[C@@H]4c4ccccc4)[C@H](C(=O)N[C@H]4C[C@@H]4c4ccccc4)C3)cc2)C[C@H]1C(=O)N[C@H]1C[C@@H]1c1ccccc1 [Compound 21] and report it. 5

Look up EC50 of O=C(NCc1ccccc1)[C@@H]1CN(C(=O)c2ccc(C(=O)N3C[C@@H](C(=O)N[C@H]4C[C@@H]4c4ccccc4)[C@H](C(=O)N[C@H]4C[C@@H]4c4ccccc4)C3)cc2)C[C@H]1C(=O)N[C@H]1C[C@@H]1c1ccccc1 [Compound 22] and report it. 50

Look up EC50 of O=C(O)CCCCCCCCCCCNC(=O)[C@@H]1CN(C(=O)c2ccc(C(=O)N3C[C@@H](C(=O)N[C@H]4C[C@@H]4c4ccccc4)[C@H](C(=O)N[C@H]4C[C@@H]4c4ccccc4)C3)cc2)C[C@H]1C(=O)N[C@H]1C[C@@H]1c1ccccc1 [Compound 11] and report it. 280

Look up EC50 of Nc1ccc(CCCCCCCCNC(=O)[C@@H]2CN(C(=O)c3ccc(C(=O)N4C[C@@H](C(=O)N[C@H]5C[C@@H]5c5ccccc5)[C@H](C(=O)N[C@H]5C[C@@H]5c5ccccc5)C4)cc3)C[C@H]2C(=O)N[C@H]2C[C@@H]2c2ccccc2)cc1 [Compound 27] and report it. 6

====

Catalogue of molecules with associated EC50
# test target: TLR1/TLR2 (Homo sapiens, UniProt O60603+Q15399)
# method notes: TNF-α release from PMA-differentiated human THP-1 cells (ELISA)
# setup conditions: read-out: EC50 (nM) (THP-1): EC50 TNF-α release from human THP-1 cells; Table 1
Number in nM, nothing else.

Example molecules with recorded EC50:
Look up EC50 of O=C(NCCCCCCCCO)[C@@H]1CN(C(=O)c2ccc(C(=O)N3C[C@@H](C(=O)N[C@H]4C[C@@H]4c4ccccc4)[C@H](C(=O)N[C@H]4C[C@@H]4c4ccccc4)C3)cc2)C[C@H]1C(=O)N[C@H]1C[C@@H]1c1ccccc1 and report it. 4.3

Look up EC50 of NCCCCCCCCCCCCNC(=O)[C@@H]1CN(C(=O)c2ccc(C(=O)N3C[C@@H](C(=O)N[C@H]4C[C@@H]4c4ccccc4)[C@H](C(=O)N[C@H]4C[C@@H]4c4ccccc4)C3)cc2)C[C@H]1C(=O)N[C@H]1C[C@@H]1c1ccccc1 and report it. 0.8

Look up EC50 of O=C(O)CCCCCCCCCCCNC(=O)[C@@H]1CN(C(=O)c2ccc(C(=O)N3C[C@@H](C(=O)N[C@H]4C[C@@H]4c4ccccc4)[C@H](C(=O)N[C@H]4C[C@@H]4c4ccccc4)C3)cc2)C[C@H]1C(=O)N[C@H]1C[C@@H]1c1ccccc1 and report it. 3.4

Continuing:
Look up EC50 of C#CCCCCCCCCCCCCNC(=O)[C@@H]1CN(C(=O)c2ccc(C(=O)N3C[C@@H](C(=O)N[C@H]4C[C@@H]4c4ccccc4)[C@H](C(=O)N[C@H]4C[C@@H]4c4ccccc4)C3)cc2)C[C@H]1C(=O)N[C@H]1C[C@@H]1c1ccccc1 and report it. 0.04

====

Catalogue of compounds with associated Emax
# test target: TLR1/TLR2 (Homo sapiens, UniProt O60603+Q15399)
# method notes: TNF-α release from PMA-differentiated human THP-1 cells (ELISA)
# setup conditions: THP-1, 4 h, read-out: Efficacy (magnitude) of response versus diprovocim-1 (100%), THP-1
Number in %, nothing else.

Example compounds with recorded Emax:
Look up Emax of CC(C)(C)OC(=O)N[C@@H](CSCc1ccccc1)C(=O)OCCCCCCCCCCCCNC(=O)[C@@H]1CN(C(=O)c2ccc(C(=O)N3C[C@@H](C(=O)N[C@H]4C[C@@H]4c4ccccc4)[C@H](C(=O)N[C@H]4C[C@@H]4c4ccccc4)C3)cc2)C[C@H]1C(=O)N[C@H]1C[C@@H]1c1ccccc1 and report it. 100

Look up Emax of C[C@@H](NC(=O)OC(C)(C)C)C(=O)OCCCCCCCCCCCCNC(=O)[C@@H]1CN(C(=O)c2ccc(C(=O)N3C[C@@H](C(=O)N[C@H]4C[C@@H]4c4ccccc4)[C@H](C(=O)N[C@H]4C[C@@H]4c4ccccc4)C3)cc2)C[C@H]1C(=O)N[C@H]1C[C@@H]1c1ccccc1 and report it. 110

Look up Emax of CC(C)(C)OC(=O)NCCCCCCCCCCCCNC(=O)[C@@H]1CN(C(=O)c2ccc(C(=O)N3C[C@@H](C(=O)N[C@H]4C[C@@H]4c4ccccc4)[C@H](C(=O)N[C@H]4C[C@@H]4c4ccccc4)C3)cc2)C[C@H]1C(=O)N[C@H]1C[C@@H]1c1ccccc1 and report it. 70

// next entry
Look up Emax of O=C(CNC(=O)C(F)(F)F)OCCCCCCCCCCCCNC(=O)[C@@H]1CN(C(=O)c2ccc(C(=O)N3C[C@@H](C(=O)N[C@H]4C[C@@H]4c4ccccc4)[C@H](C(=O)N[C@H]4C[C@@H]4c4ccccc4)C3)cc2)C[C@H]1C(=O)N[C@H]1C[C@@H]1c1ccccc1 and report it. 100

====

# test target: TLR1/TLR2 (Homo sapiens, UniProt O60603+Q15399)
# method notes: TNF-α release from PMA-differentiated human THP-1 cells (ELISA);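 note: cells exposed to graded compound concentrations for 4 h, TNF-α quantified in supernatant, LPS as positive and DMSO as negative control, values are duplicate means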
# setup conditions: THP-1, 4 h, read-out: Efficacy (magnitude) of response versus diprovocim-1 (100%), THP-1
Catalogue of compounds with associated Emax
Number in %, nothing else.

Look up Emax of O=C(CO)OCCCCCCCCCCCCNC(=O)[C@@H]1CN(C(=O)c2ccc(C(=O)N3C[C@@H](C(=O)N[C@H]4C[C@@H]4c4ccccc4)[C@H](C(=O)N[C@H]4C[C@@H]4c4ccccc4)C3)cc2)C[C@H]1C(=O)N[C@H]1C[C@@H]1c1ccccc1 and report it. 100

Continuing:
Look up Emax of NCCCCCCCCCCCCNC(=O)[C@@H]1CN(C(=O)c2ccc(C(=O)N3C[C@@H](C(=O)N[C@H]4C[C@@H]4c4ccccc4)[C@H](C(=O)N[C@H]4C[C@@H]4c4ccccc4)C3)cc2)C[C@H]1C(=O)N[C@H]1C[C@@H]1c1ccccc1 and report it. 140

Look up Emax of Nc1ccc(CCCCCCCCNC(=O)[C@@H]2CN(C(=O)c3ccc(C(=O)N4C[C@@H](C(=O)N[C@H]5C[C@@H]5c5ccccc5)[C@H](C(=O)N[C@H]5C[C@@H]5c5ccccc5)C4)cc3)C[C@H]2C(=O)N[C@H]2C[C@@H]2c2ccccc2)cc1 and report it. 100

Look up Emax of [N-]=[N+]=NCC(=O)OCCCCCCCCCCCCNC(=O)[C@@H]1CN(C(=O)c2ccc(C(=O)N3C[C@@H](C(=O)N[C@H]4C[C@@H]4c4ccccc4)[C@H](C(=O)N[C@H]4C[C@@H]4c4ccccc4)C3)cc2)C[C@H]1C(=O)N[C@H]1C[C@@H]1c1ccccc1 and report it. 100

Look up Emax of C#CCOCC(=O)OCCCCCCCCCCCCNC(=O)[C@@H]1CN(C(=O)c2ccc(C(=O)N3C[C@@H](C(=O)N[C@H]4C[C@@H]4c4ccccc4)[C@H](C(=O)N[C@H]4C[C@@H]4c4ccccc4)C3)cc2)C[C@H]1C(=O)N[C@H]1C[C@@H]1c1ccccc1 and report it. 30

Look up Emax of O=C(OCCCCCCCCCCCCNC(=O)[C@@H]1CN(C(=O)c2ccc(C(=O)N3C[C@@H](C(=O)N[C@H]4C[C@@H]4c4ccccc4)[C@H](C(=O)N[C@H]4C[C@@H]4c4ccccc4)C3)cc2)C[C@H]1C(=O)N[C@H]1C[C@@H]1c1ccccc1)c1ccc(O)cc1 and report it. 100

Look up Emax of CC(C)(C)OC(=O)CNC(=O)CCCCCCCCCCCNC(=O)[C@@H]1CN(C(=O)c2ccc(C(=O)N3C[C@@H](C(=O)N[C@H]4C[C@@H]4c4ccccc4)[C@H](C(=O)N[C@H]4C[C@@H]4c4ccccc4)C3)cc2)C[C@H]1C(=O)N[C@H]1C[C@@H]1c1ccccc1 and report it. 100

Look up Emax of CC(C)(C)OC(=O)N[C@@H](CCC(=O)OCc1ccccc1)C(=O)OCCCCCCCCCCCCNC(=O)[C@@H]1CN(C(=O)c2ccc(C(=O)N3C[C@@H](C(=O)N[C@H]4C[C@@H]4c4ccccc4)[C@H](C(=O)N[C@H]4C[C@@H]4c4ccccc4)C3)cc2)C[C@H]1C(=O)N[C@H]1C[C@@H]1c1ccccc1 and report it. 100

Look up Emax of CC(C)(C)OC(=O)N[C@@H](Cc1ccccc1)C(=O)OCCCCCCCCCCCCNC(=O)[C@@H]1CN(C(=O)c2ccc(C(=O)N3C[C@@H](C(=O)N[C@H]4C[C@@H]4c4ccccc4)[C@H](C(=O)N[C@H]4C[C@@H]4c4ccccc4)C3)cc2)C[C@H]1C(=O)N[C@H]1C[C@@H]1c1ccccc1 and report it. 100

Look up Emax of O=C(O)/C=C/C(=O)NCC(=O)OCCCCCCCCCCCCNC(=O)[C@@H]1CN(C(=O)c2ccc(C(=O)N3C[C@@H](C(=O)N[C@H]4C[C@@H]4c4ccccc4)[C@H](C(=O)N[C@H]4C[C@@H]4c4ccccc4)C3)cc2)C[C@H]1C(=O)N[C@H]1C[C@@H]1c1ccccc1 and report it. 100

Look up Emax of O=C(NCCCCCCCCCCO)[C@@H]1CN(C(=O)c2ccc(C(=O)N3C[C@@H](C(=O)N[C@H]4C[C@@H]4c4ccccc4)[C@H](C(=O)N[C@H]4C[C@@H]4c4ccccc4)C3)cc2)C[C@H]1C(=O)N[C@H]1C[C@@H]1c1ccccc1 and report it. 90

Look up Emax of CC(C)(C)OC(=O)N[C@@H](CCCCNC(=O)OCC1c2ccccc2-c2ccccc21)C(=O)OCCCCCCCCCCCCNC(=O)[C@@H]1CN(C(=O)c2ccc(C(=O)N3C[C@@H](C(=O)N[C@H]4C[C@@H]4c4ccccc4)[C@H](C(=O)N[C@H]4C[C@@H]4c4ccccc4)C3)cc2)C[C@H]1C(=O)N[C@H]1C[C@@H]1c1ccccc1 and report it. 100

Look up Emax of O=C(CNC(=O)OCc1ccccc1)OCCCCCCCCCCCCNC(=O)[C@@H]1CN(C(=O)c2ccc(C(=O)N3C[C@@H](C(=O)N[C@H]4C[C@@H]4c4ccccc4)[C@H](C(=O)N[C@H]4C[C@@H]4c4ccccc4)C3)cc2)C[C@H]1C(=O)N[C@H]1C[C@@H]1c1ccccc1 and report it. 100
